Tested on: lacZ under control of the tetA promoter (PtetA) in E. coli KM3
Format: cell-based
CONDITION_LABEL: Table 4; chlorsulfuron 20 ppm; 48 hrs at 30° C.
Listed molecules paired with reported relative β-galactosidase activity, inducer Cs
Quick one: just the number, no unit, thanks!

{"MOLECULE": "L1-44: SU-responsive TetR(B) variant, library L1 hit, SEQ ID NO: 13 (protein, Sulfonylurea responsive repressor L1-44) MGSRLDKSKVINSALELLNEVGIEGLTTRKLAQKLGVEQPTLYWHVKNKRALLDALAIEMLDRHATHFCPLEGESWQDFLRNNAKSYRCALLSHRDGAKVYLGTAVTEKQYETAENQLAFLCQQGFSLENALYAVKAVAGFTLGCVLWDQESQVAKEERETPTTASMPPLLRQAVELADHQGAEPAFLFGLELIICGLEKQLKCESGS", "REPORTED_RESULT": 12.0}

Field: next molecule
[ask] Data request, read-out relative β-galactosidase activity, inducer Cs, for L1-31: SU-responsive TetR(B) variant, library L1 hit (protein, Sulfonylurea responsive repressor L1-31) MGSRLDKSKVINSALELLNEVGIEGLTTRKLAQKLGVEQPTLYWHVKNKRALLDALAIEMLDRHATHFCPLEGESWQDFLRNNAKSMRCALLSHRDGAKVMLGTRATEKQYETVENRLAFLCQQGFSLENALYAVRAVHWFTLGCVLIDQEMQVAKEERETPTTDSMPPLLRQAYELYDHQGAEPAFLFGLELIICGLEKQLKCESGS
[reply] 1.4
